- test_target: stromelysin (catalytic domain) (Homo sapiens)
- Construct: The catalytic domain of stromelysin was prepared in accordance with well-known known procedures; made in house
- Sequence (P08254 100-272 limits assumed): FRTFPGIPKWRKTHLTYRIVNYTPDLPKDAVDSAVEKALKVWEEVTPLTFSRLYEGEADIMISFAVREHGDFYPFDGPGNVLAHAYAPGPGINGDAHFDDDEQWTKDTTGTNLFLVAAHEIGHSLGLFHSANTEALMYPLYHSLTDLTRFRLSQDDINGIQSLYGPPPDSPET
- assay_notes: ESI-MS detection of noncovalent complexes and competition experiments with stromelysin
- Type: binding
- run_parameters: ESI-MS
property_label: specificity of association (no greater than 1:1 complex)

N#Cc1ccc(-c2ccc(O)cc2)cc1	specific
CC(=O)NO [acetohydroxamic acid]	specific
COc1ccc(C(=O)Nc2ccccc2)cc1 [4-methoxy-N-phenylbenzamide]	specific

---

- test_target: protein tyrosine phosphatase 1b (PTP1b) (Homo sapiens, UniProt P18031)
- Sequence (P18031 1-435): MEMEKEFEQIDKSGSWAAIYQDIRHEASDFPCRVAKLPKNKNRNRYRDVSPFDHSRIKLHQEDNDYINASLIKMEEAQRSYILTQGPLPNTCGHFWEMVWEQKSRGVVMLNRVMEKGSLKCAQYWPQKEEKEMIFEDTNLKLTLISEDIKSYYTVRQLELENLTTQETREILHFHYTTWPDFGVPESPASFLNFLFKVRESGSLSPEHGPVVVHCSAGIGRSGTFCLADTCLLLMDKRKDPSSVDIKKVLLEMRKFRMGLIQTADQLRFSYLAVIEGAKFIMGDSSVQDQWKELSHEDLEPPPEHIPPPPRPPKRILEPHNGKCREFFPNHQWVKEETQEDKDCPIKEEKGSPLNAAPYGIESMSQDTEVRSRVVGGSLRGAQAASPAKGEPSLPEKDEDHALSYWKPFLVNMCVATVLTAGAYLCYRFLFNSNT
- assay_notes: ESI-MS detection of 1:1 noncovalent complex with PTP1b
- run_parameters: mass spectrometry; read-out: binding constant (Kd)
property_label: Kd (µM)
// units = µM; emit number, no label

Tell me the measured Kd of O=c1c(O)c(-c2ccccc2)c1=O [Compound 8A] , please.
25

Where these numbers come from: patent US20020172967A1
